# target: Glc(b1-6)Glc
# assay details: glycan array binding signal (z-score within array); higher = stronger binding
# condition summary: glycan notation: IUPAC condensed, linker removed
Shown is part of a subset that was picked to be rich in the strongest signals.
Measured glycan array binding signal (z-score) values are reported for all entries that follow.
measurement kind: glycan array binding signal (z-score)

INSERT INTO assay_data (binder, measurement_kind, experimental_result) VALUES
  ('BC2LB (Burholderia cenocepacia), B4EH85_BURCJ (protein) MGSSHHHHHHSSGENLYFQGHMSQPFTHDDLYALLQLAGNDATAVQANGDQAVLDRMRQFMTAQLVEKLPQYDVFVDIATIPYSFDVGSWQNKVKTDAAGEVVACTVTWAGAPGVLPGAAAKFGVGAVVNYFSKATPH', 'glycan array binding signal (z-score)', 0.216),
  ('RSVL (Crotalus atrox), P21963 (protein) NNCPLDWLPMNGLCYKIFNQLKTWEDAEMFCRKYKPGCHLASFHRYGESLEIAEYISDYHKGQENVWIGLRDKKKDFSWEWTDRSCTDYLTWDKNQPDHYQNKEFCVELVSLTGYRLWNDQVCESKDAFLCQCKF', 'glycan array binding signal (z-score)', -0.364),
  ('HBHA-Rv (Mycobacterium tuberculosum), P0A5P6 (protein) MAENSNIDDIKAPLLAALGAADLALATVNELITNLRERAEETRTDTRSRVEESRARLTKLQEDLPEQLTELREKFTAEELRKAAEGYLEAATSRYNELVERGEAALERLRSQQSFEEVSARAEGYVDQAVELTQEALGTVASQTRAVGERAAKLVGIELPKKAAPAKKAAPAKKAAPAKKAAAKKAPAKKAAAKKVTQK', 'glycan array binding signal (z-score)', 0.495),
  ('Epa1to9 (Candida glabrata) (protein) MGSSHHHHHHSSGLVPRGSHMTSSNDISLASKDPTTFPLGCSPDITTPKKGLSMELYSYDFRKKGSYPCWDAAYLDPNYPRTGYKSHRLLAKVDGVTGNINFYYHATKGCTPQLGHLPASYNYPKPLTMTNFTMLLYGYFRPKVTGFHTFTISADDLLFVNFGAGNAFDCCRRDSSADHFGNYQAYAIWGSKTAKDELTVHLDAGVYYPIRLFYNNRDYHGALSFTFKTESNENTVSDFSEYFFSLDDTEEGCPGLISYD', 'glycan array binding signal (z-score)', -0.333);
